System: morningglory (Ipomoea coccinea)
PROTOCOL_SUMMARY: Test C preemergence
Assay type: in vivo
PROTOCOL_CONDITIONS: 250 g ai/ha, scale 0 to 100, 0 no effect, 100 complete control
// label = condition met if Plant response rating, Morningglory is not less than 20, otherwise condition not met

[
  {
    "COMPOUND": "CN1CC(c2ccc(C(F)(F)F)c(F)c2)C(C(=O)Nc2ccccc2S(C)(=O)=O)C1=O (stereo not drawn) [Compound 397]",
    "LABEL_VALUE": "condition met"
  },
  {
    "COMPOUND": "O=C1NCC(c2cccc(OC(F)(F)C(F)F)c2)C1C(=O)Nc1ccccc1F (racemic) [Compound 695]",
    "LABEL_VALUE": "condition not met"
  },
  {
    "COMPOUND": "CN1CC(c2cccc(C(F)(F)F)c2)C(C(=O)Nc2cccc(F)c2F)C1=O (stereo not drawn) [Compound 636]",
    "LABEL_VALUE": "condition met"
  }
]

[ask] Given CN1CC(c2cccc(OC(F)F)c2)C(C(=O)Nc2ccccc2F)C1=O (stereo not drawn) [Compound 618] , state whether its Plant response rating, Morningglory is at least 20.
[reply] condition not met

[ask] Given CN1CC(c2ccc(F)c(C(F)(F)F)c2)C(C(=O)Nc2cccc(F)c2F)C1=O (stereo not drawn) [Compound 613] , state whether its Plant response rating, Morningglory is at least 20.
[reply] condition met

----------
Catalogue of melting point values

Item: CN1C[C@H](c2ccc(C(F)(F)F)cc2)[C@@H](C(=O)Nc2ccccc2C(F)(F)F)C1=O | melting point: 108 to 111 °C

Item: C/C=C/C1CNC(=O)C1C(=O)Nc1cccc(F)c1F (stereo not drawn) | melting point: 151 to 155 °C

Item: CN1C[C@H](c2ccc(C(F)(F)F)cc2)[C@@H](C(=O)Nc2ccccc2Br)C1=O | melting point: 104 to 107 °C

Item: O=C1NC[C@H](c2ccc(F)c(OC(F)(F)C(F)F)c2)[C@H]1C(=O)Nc1ccccc1F | melting point: 119 to 123 °C

Item: CSc1ccccc1NC(=O)[C@H]1C(=O)NC[C@@H]1c1ccc(C(F)(F)F)cn1 | melting point: 66 to 70 °C

Item: CN1C[C@H](c2ccc(C(F)(F)F)cc2)[C@@H](C(=O)Nc2ccc(F)cc2C(F)(F)F)C1=O | melting point: 113 to 116 °C

Item: CCc1cccc([C@H]2CCNC(=O)[C@@H]2C(=O)Nc2cccc(F)c2F)c1 | melting point: 128 to 132 °C

Item: Cc1cc(F)ccc1NC(=O)[C@H]1C(=O)N(C)C[C@@H]1c1ccc(C(F)(F)F)cc1 | melting point: 119 to 122 °C

----------
Tested on: Kochia (Kochia scoparia)
PROTOCOL_SUMMARY: Test A postemergence
Format: in vivo
PROTOCOL_CONDITIONS: 125 g ai/ha, postemergence; visual injury rating on 0 to 100 scale (0 no effect, 100 complete control), approx. 10 d
PROPERTY_LABEL: Kochia plant response rating
Please state the value as a number alone, without comment.

Completed entries (count: 4):
[
  {
    "MOLECULE": "COCc1cccc(C2CNC(=O)C2C(=O)Nc2ccccc2Cl)c1 (centres unmarked)",
    "TESTED_SYSTEM": "Kochia (Kochia scoparia)",
    "PROPERTY_LABEL": "Kochia plant response rating",
    "MEAS_VALUE": 0
  },
  {
    "MOLECULE": "Cc1cc(C2CN(C)C(=O)C2C(=O)Nc2ccccc2S(C)(=O)=O)ccc1F (centres unmarked)",
    "TESTED_SYSTEM": "Kochia (Kochia scoparia)",
    "PROPERTY_LABEL": "Kochia plant response rating",
    "MEAS_VALUE": 40
  },
  {
    "MOLECULE": "Cc1cc(C2CN(C)C(=O)C2C(=O)Nc2ccc(F)cc2F)ccc1F (centres unmarked)",
    "TESTED_SYSTEM": "Kochia (Kochia scoparia)",
    "PROPERTY_LABEL": "Kochia plant response rating",
    "MEAS_VALUE": 60
  },
  {
    "MOLECULE": "O=C1NCC(c2cccc(OCC(F)F)c2)C1C(=O)Nc1ccc(F)c(F)c1F (centres unmarked)",
    "TESTED_SYSTEM": "Kochia (Kochia scoparia)",
    "PROPERTY_LABEL": "Kochia plant response rating",
    "MEAS_VALUE": 0
  }
]

Here is the next item to consider.
Item: COc1ccc(NC(=O)C2C(=O)NCC2c2ccc(F)c(F)c2)cc1F (centres unmarked) | Kochia plant response rating: 0
